targetOfAssay: T1, His tagged mouse CD47 protein (mouse, UniProt Q61735 19-140, limits assumed)
T1 construct: Bought protein
T1 sequence (looked up): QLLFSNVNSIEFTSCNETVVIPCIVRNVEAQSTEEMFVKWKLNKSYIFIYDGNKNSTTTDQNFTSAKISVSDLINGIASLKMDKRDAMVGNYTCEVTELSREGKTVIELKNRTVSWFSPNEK
testSummary: ELISA, plate coated with His tagged mouse CD47 at 2 ug/ml, goat anti-mouse IgG-HRP, OD450
endpointName: binding result

[
  {
    "binder": "D36S4 mouse anti-human CD47 hybridoma antibody (antibody, V domains shown, Mouse hybridoma IgG) VH: EVKLEESGGGLVQPGGSMKLSCVASGFTFSRYWMNWVRQSPDKGLEWVAQIRLKSDNYETHYAESVKGRFTISRDDSKSSVYLQMNNLRAEDTGIYYCIEEGGYYVPFAYWGQGTLVTVSA VL: DIVVSQSPSSLAVSAGEKVTMSCKSSQSLFKSRTRKNYLAWYQQRPGQSPKLLIYWASIRESGVPDRFTGSGSGTEFTLTISSVQAEDLAVYYCKQSYYLLTFGAGTKLELK",
    "assayResult": "binds"
  }
]

The measurements presented in this section are drawn from patent US20210206850A1.
